test system: CAKI-1; test: NCI tumour cell line growth inhibition, 48 h
Calls of active or inactive are those of the source. Rule as the data show it: active = GI50 up to about 1.1 µM and inactive = higher.
# output must be one of yes (1) (active), no (0) (inactive)

N#C/C1=C(\N)CCSSSC1 : no (0)
O=C1CCc2cc([N+](=O)[O-])ccc2O1 : no (0)
O=C1NC2(CCCC2)C(=O)C12CCCC2 : no (0)
COc1cc2c(cc1OC)C(=O)N(c1ccc(O)cc1)C2=O : no (0)
COc1cc(C2c3cc4c(cc3OC(N3CCOCC3)C2C)OCO4)cc(OC)c1OC(C)=O (stereo not drawn) : no (0)
CC(=O)O[C@H]1CCN2C(=O)C=CC(OCc3ccccc3)C12 (stereo partly drawn) : no (0)
COC(=O)C1CCN(C(=O)OC(C)(C)C)CC1 : no (0)
Cn1c(=O)c2c(nc3n(C)c(=O)c4ccccc4n23)n(C)c1=O : no (0)

In: Each compound tested received a call. Report the one for C#C[C@]1(O)CC[C@H]2[C@@H]3CCc4cc(OC(=O)c5cccc6cc7ccccc7nc56)ccc4[C@H]3CC[C@@]21C .
Out: no (0)

In: Would you mind doing Nc1nc(N)c2c3c(cnc2n1)CC(c1ccccc1)CC3 (stereo not drawn) as well?
Out: no (0)

In: Would you mind doing O=C1CCC(c2nc3cc(Cl)ccc3o2)C(=O)N1 (stereo not drawn) as well?
Out: no (0)

In: Would you mind doing C(#CC1(Nc2ccccc2)CCN(Cc2ccccc2)CC1)C1(Nc2ccccc2)CCN(Cc2ccccc2)CC1 as well?
Out: no (0)

In: Would you mind doing O=c1c(Br)c(-c2ccccc2)[s+]([O-])c2ccccc12 (stereo not drawn) as well?
Out: no (0)

In: Would you mind doing Nc1nc(N)c2ncn(-c3ccc(Br)cc3)c2n1 as well?
Out: no (0)

In: Would you mind doing COc1cccc2c3ccccc3c3nc[nH]c3c12 as well?
Out: no (0)

====

system: SF-268; assay: NCI tumour cell line growth inhibition, 48 h
Calls of active or inactive are those of the source. Rule as the data show it: active = GI50 up to about 1.1 µM and inactive = higher.
endpoint.name: GI50

Known results for molecules:
COc1ccc(CNc2nc3ccccc3nc2-c2cccs2)cc1OC : 47.4 µM (inactive)
COc1cc2c(cc1OC)-c1c3cc(O)ccc3nn[n+]1CC2 : > 100 µM (inactive)
Oc1[nH]c(Nc2ccc(Cl)cc2)nc2ncnc1-2 : 55 µM (inactive)
COc1cccc2c1-c1nc(N)c3c(OC)cccc3c1C2=O : 68.4 µM (inactive)
O=C(O)/C(=C\c1ccc(O)cc1)c1cccc2ccccc12 : > 100 µM (inactive)

Below: the item to evaluate.
In: Could you share which GI50 value was measured for COc1ccccc1NC(=O)CC(=O)NN ?
Out: > 100 µM (inactive)

====

test system: DMS-273; assay: NCI tumour cell line growth inhibition, 48 h
Calls of active or inactive are those of the source. Rule as the data show it: active = GI50 up to about 1.1 µM and inactive = higher.
# output must be one of 1 for active, 0 for inactive

Record excerpt, results attached:
O=C(C/C(CCC(=O)N(Cc1ccccc1)Cc1ccccc1)=N/Nc1ccc([N+](=O)[O-])cc1[N+](=O)[O-])c1ccccc1 : 0
COc1c2ccoc2c(S(=O)(=O)Nc2ccc(Cl)cc2)c2oc(C)cc(=O)c12 : 0
CC(=O)O[C@H]1C(=O)[C@@]2(C)C(C(OC(=O)c3ccccc3)[C@]3(O)C[C@H](OC(=O)C(OC(=O)CCCC(=O)NCCCN(C)C)C(NC(=O)c4ccccc4)c4ccccc4)C(C)=C1C3(C)C)C1(OC(C)=O)COC1C[C@@H]2O (some centres undefined) : 1
COc1cc(CNc2ccc(SC)cc2)cc(OC)c1OC : 0
CC(=O)N(C)OC(=O)CC(=O)c1ccccc1 : 0

In: Each compound tested received a call. Report the one for O=C1NC2(CCCC2)C(=O)C12CCCC2 .
Out: 0

====

system: HT-29; test: NCI tumour cell line growth inhibition, 48 h
The source made the active and inactive calls. Rule as the data show it: active = GI50 up to about 1.1 µM and inactive = higher.
# output must be one of active, inactive

Record excerpt, results attached:
N=C(N)/N=C(\N)Nc1ccc(C(=O)O)cc1 : inactive
C=Cc1nc2nnc(CCCCCCCCc3nnc4nc(C=C)[nH]n34)n2[nH]1 : inactive

Next item in the queue.
In: Each compound tested received a call. Report the one for CC(C)(C)OC(=O)n1cc(C2CN(O)C(=O)C23CCC(=O)N3Cc2ccccc2)c2ccccc21 (stereo not given) .
Out: inactive

====

test system: SR; assay: NCI tumour cell line growth inhibition, 48 h
Active and inactive are the calls of the source. Rule as the data show it: active = GI50 up to about 1.1 µM and inactive = higher.
# output must be one of YES = active, NO = inactive

Record excerpt, results attached:
CCOC(=O)c1c2c(n3ccccc13)C(=O)c1ccccc1C2=O : NO
Cn1c(=O)c2c(nc3n(C)c(=O)c4ccccc4n23)n(C)c1=O : NO
CCCCCC(=O)N[C@@H](c1ccco1)[C@@H](O)C(=O)O[C@H]1C[C@@]2(O)[C@@H](OC(=O)c3ccccc3)[C@@H]3[C@]4(OC(C)=O)CO[C@@H]4C[C@H](O)[C@@]3(C)C(=O)[C@H](OC(C)=O)C(=C1C)C2(C)C : YES
COc1cc2c(cc1OC)C(=O)N(c1ccc(O)cc1)C2=O : NO

In: Each molecule tested received a call. Report the one for CCN(CC)CCCNC(=O)c1ccccc1Nc1c(Cl)cccc1Cl .
Out: NO

In: Would you mind doing COc1ccc(CNc2nc3ccccc3nc2-c2cccs2)cc1OC as well?
Out: NO

In: Would you mind doing CC(NC(=O)N(C)C)NC(=O)N(C)C as well?
Out: NO

In: Would you mind doing CC(C)OC(=O)[C@@H](O)[C@H](CO)C1=CC([Si](C)(C)c2ccccc2)=CON1 as well?
Out: NO

In: Would you mind doing O=c1oc2cc(/N=C/c3ccccc3Cl)ccc2c2ccccc12 as well?
Out: NO

In: Would you mind doing CCOC(=O)Cc1ccc(Nc2nc3ccccc3nc2C(=O)OCC)cc1 as well?
Out: NO

In: Would you mind doing c1ccc(C2=Nc3nc4ccccc4n3C(c3ccccc3)C2)cc1 (configuration not stated) as well?
Out: NO

In: Would you mind doing C/C=N\n1c(C)c(C#N)c(C#N)c1N as well?
Out: NO

In: Would you mind doing N#Cc1ccccc1Sc1ccccc1N as well?
Out: NO

====

system: HCT-15
endpoint.name: GI50

Known results for molecules:
CC(C)(C)c1ccc(O)c(Br)c1 : > 100 µM
c1ccc([P+](c2ccccc2)(c2ccccc2)c2ccc([P+](c3ccccc3)(c3ccccc3)c3ccccc3)cc2)cc1 : > 100 µM
N#C/C(N)=C(C#N)/N=C/Nc1ccccc1N : > 100 µM

In: Notebook entry, HCT-15 assay: GI50 of COc1ccc(/C(=N/O)c2ccccc2C2=Nc3ccccc3C(NCc3ccccc3)O2)cc1C (centres undefined) = ?
Out: 30.3 µM

====

test system: M14; assay: NCI tumour cell line growth inhibition, 48 h
Calls of active or inactive are those of the source. No stated cut-off is given here; in the data, active = GI50 up to about 1.1 µM and inactive = higher.
# output must be one of active, inactive

CCC(=O)OC1=C(c2ccccc2)Sc2ccc(Cl)cc2-n2cccc21 : inactive
Cc1cc(C)c(S(=O)(=O)N(CCCN)OCCCON(CCCN)S(=O)(=O)c2c(C)cc(C)cc2C)c(C)c1 : inactive

In: Each molecule tested received a call. Report the one for Cc1cc(Cc2cc(C)c(N)cc2N)c(N)cc1N .
Out: inactive

In: Would you mind doing O=C(O/N=C1\CCCC\C1=C/c1ccccc1)c1ccc([N+](=O)[O-])cc1 as well?
Out: inactive

In: Would you mind doing CC1(C)C2CC3C(C)(C2)C31c1cc(Cl)ccc1N (centres undefined) as well?
Out: inactive

In: Would you mind doing CN(C)CCNC(=O)c1cccc2c1nc(-c1ccccc1)c1ccccc12 as well?
Out: inactive

In: Would you mind doing CCC(C)(C)NC1=C(NC(C)=O)C(=O)c2ccccc2C1=O as well?
Out: inactive

In: Would you mind doing COc1ccc(-c2cc(-c3ccco3)c(C#N)c(=O)[nH]2)cc1 as well?
Out: inactive

In: Would you mind doing O=C1C=CC(=O)c2c1ccc1c3ccccc3n(-c3ccccc3)c21 as well?
Out: inactive

In: Would you mind doing COC(=O)c1ccc2cc(O)ccc2c1 as well?
Out: inactive

====

test system: A498; assay: NCI tumour cell line growth inhibition, 48 h
Activity calls are given as the source filed them. Rule as the data show it: active = GI50 up to about 1.1 µM and inactive = higher.
# output must be one of True for active, False for inactive

Record excerpt, results attached:
COc1cc(C2=N/C(=C/c3cccs3)C(=O)O2)cc(OC)c1OC : False
O=C1C=CC(=O)c2c1ccc1c3ccccc3n(-c3ccccc3)c21 : False
CN(C)CCNC(=O)c1cccc2[nH]c(-c3ccncc3)nc12 : False
CC1OC(OC2C(O)C(O)C(O)C(O)C2O)C(N)CC1NC(=N)C(=O)O (stereo not given) : False
C=C(C(=O)O)C1CCC(CC/C=C(\C)CC/C=C(\C)CCC=C(C)C)CO1 (stereo not given) : False

Next item in the queue.
In: Each molecule tested received a call. Report the one for COc1ccc2[nH]c(C(=O)N3CC(CCl)c4c3cc(N)c3ccccc43)cc2c1 (stereo not given) .
Out: True

Values from ChEMBL document CHEMBL1201862
